# credit: the RNAGym collection of RNA variant scans (doi:10.7554/elife.90254)

B1: LINE1-full (parent)
chain: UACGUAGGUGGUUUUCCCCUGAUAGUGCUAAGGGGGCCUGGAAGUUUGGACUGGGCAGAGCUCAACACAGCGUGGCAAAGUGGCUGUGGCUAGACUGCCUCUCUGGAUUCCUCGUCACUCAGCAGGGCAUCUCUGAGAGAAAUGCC

# Variants of: B1
# test-details: self-cleavage, relative activity (ratio to wild type); higher = more cleavage; in vitro, sequencing; the parent is a self-cleaving ribozyme
The following variants are shown together with reported self-cleavage values.
reported-property: self-cleavage

sequence-record | reported-property | recorded-value
UACGUAGGUGGUUCUCCCCUGAUAGUGCUAAGGGGGCCUGGAAGUUUGGACUGGGCAGAGCUCAACACAGCGUGGCAAAGUGGCUGUGGCUAGACUGCCUCUCUGGAUUCCUCGUCACUCAGCAGGGCAUCUCUGAGAGAAAUGAC [U14C C145A] | self-cleavage | 1.28
UACGUAGGUGGAUUUCCCCUGAUAGUGCUAAGGGGGCCUGGAAGUUUGGACAGGGCAGAGCUCAACACAGCGUGGCAAAGUGGCUGUGGCUAGACUGCCUCUCUGGAUUCCUCGUCACUCAGCAGGGCAUCUCUGAGAGAAAUGCC [U12A U52A] | self-cleavage | 1.28
UACUUAGGUGGUUUUCCCCUGAUAGUGCUAAGGGGGCCUGGAAGUUUGGACUGGGCAGAGUUCAACACAGCGUGGCAAAGUGGCUGUGGCUAGACUGCCUCUCUGGAUUCCUCGUCACUCAGCAGGGCAUCUCUGAGAGAAAUGCC [G4U C61U] | self-cleavage | 0.08
UACGUAGGUGGUUUUCCCCUGAUAGUGCUAAGGGGGCCUGGAAGUUUGGACUGGGCAGAGCUCAACACAGCGUGGCAAGGUGGCUGUGGCUAGACUGCCUCUCUGGAUUCCUCGUCACUCAGCAGGGCAUCUCAGAGAGAAAUGCC [A79G U134A] | self-cleavage | 1.07
UACGUAGGUGGCUUUCCCCUGAUAGUACUAAGGGGGCCUGGAAGUUUGGACUGGGCAGAGCUCAACACAGCGUGGCAAAGUGGCUGUGGCUAGACUGCCUCUCUGGAUUCCUCGUCACUCAGCAGGGCAUCUCUGAGAGAAAUGCC [U12C G27A] | self-cleavage | 0.87
UACGUAGGUGGUUUUCCCCUGAUAGUGCUAAGGGGGCCUGGAAGUUUGGACUGGGCAGAGCUCAACACAGCGUGGCAAAGUGGCUGUGGCUAGACUUCCUCUCUGGAUUCCUCGUCACUCAGCAGGGCAUCUCUGAGAGAAAUGUC [G97U C145U] | self-cleavage | 0.04
UACGUAGGUGGUUUUCCCCUGAUAGUGCUAAGGGGGCCUGGAAGUUUGGACUGGGCAGAGCUCAACACAGCGUGGCAAAGUGGCUGUGGCUAGACUGCCUCUCUGGAUACCUCGUCACUCAGCAGGGCAUCUCUGAGAGUAAUGCC [U109A A140U] | self-cleavage | 1.22
UACGUAGGUGGUUUUCCCCUGAUAGUGCUAAGGGGGCCUGGAAGUUUGGACUGGGCAGAGCUCAACACAGCGUGGCAAAGUGACUGUGGCUAGACUGCCUCUCUGGAUUCCCCGUCACUCAGCAGGGCAUCUCUGAGAGAAAUGCC [G83A U112C] | self-cleavage | 0.54
UACGUAGGUGGUUUUCCCCAGAUAGUGCUAAGGGGGCCUGGAAGUUUGGACUGGGCAGAGCUCAACACAGCGUGGCAAAGUGGCUGUGGCUAGACUGCCUCUCUGGACUCCUCGUCACUCAGCAGGGCAUCUCUGAGAGAAAUGCC [U20A U108C] | self-cleavage | 1.95
UACGUAGGUGGUUUUCCCCUGAUAGUGCUAAGGGGGACUGGAAGUUUGGACUGGGCAGAGCUCAACACAGCGUGGCAAAGUGGCUGGGGCUAGACUGCCUCUCUGGAUUCCUCGUCACUCAGCAGGGCAUCUCUGAGAGAAAUGCC [C37A U87G] | self-cleavage | 0.12
UACGUAGGUGGCUUUCCCCUGAUAGUGCUAAGGGGGCCUGGAAGUUUGGACUGGGCAGAGCACAACACAGCGUGGCAAAGUGGCUGUGGCUAGACUGCCUCUCUGGAUUCCUCGUCACUCAGCAGGGCAUCUCUGAGAGAAAUGCC [U12C U62A] | self-cleavage | 0.13
UACGUAGGUGGUUUUCCCCUGAUAGUGCUAAGGGGGCCUGGAAGUUUGGACUGGGCAGAGCUCAACACAGCGUGGCAAAGUGGCCGUGGCUAGACUGCCUCUCUGGAUUCCUCGUCACUCAGCAGGGCGUCUCUGAGAGAAAUGCC [U85C A129G] | self-cleavage | 0.16
UACGUAGGUGGUUUUCCCCUGAUAGUGCUAAGGGGGCCUGGAAGUUUGGACUGGGCAGAGCUCAACACAGCGUGGCAAAGUGGCUGUGGCUAGACUGCCUCUCUGGAUUCCUCGUCCCUCAGCGGGGCAUCUCUGAGAGAAAUGCC [A117C A124G] | self-cleavage | 1.7
UACGUAGGUGGUUUUCCCCUGAUAGUGCUAAGGGGGCCUGGAAGUUUGGACUGGGCAGAGCUCAACACAGCGUGGCAAAGUGGCUGUGGCCAGACUGCCUCUCUGGAUUCCCCGUCACUCAGCAGGGCAUCUCUGAGAGAAAUGCC [U91C U112C] | self-cleavage | 0.59
UACGUAGGUGGUUUUCCCCUGAUAGUGCUAAGGGGGCCUGGAAGUUUGGACUGGGCAGAGCUCAACACAGCGUGGCAAAGUGGCUGUGGCUAGGCUGCCUCUCUGGAUUCCUCGUCACUCAGCAGGGCGUCUCUGAGAGAAAUGCC [A94G A129G] | self-cleavage | 0.11
UACGUAGGUGGUUUUCCCCUGAUAGUGCUAAGGGGGCCUGGAAGUUUGGACUGGGCAGAGCUCAACACAGCGUGGCAAAGUGGCUGUGGCUAGACUGCCUCUCUGGAUUCCUCGACACUCAGCUGGGCAUCUCUGAGAGAAAUGCC [U115A A124U] | self-cleavage | 1.79
UACGUAGGUGGUUUUCCCCUGUUAGUGCUAAGGGGGCCUGGAAGUUUGGACUGGGCAGAGCUCAACACAGCGUGGCAAAGUGGCUGUGGCUAGACUGCCUCUCUGGAUUCCUCGUCACUCAGCAGGGCAUCUCUGUGAGAAAUGCC [A22U A136U] | self-cleavage | 1.04
CACGUAGGUGGUUUUCCCCUGAUAGUGCUAAGGGGGCCUGGAAGUUUGGACUGGGCAGAGCUCAACACAGCGUGGCAAAGUGGCUGUGGCUAGACUGCCUCUCUGGAUUCCUCGUCGCUCAGCAGGGCAUCUCUGAGAGAAAUGCC [U1C A117G] | self-cleavage | 0.73
UACGUAGGUGGUUUUCCCCUGAUAGUGCUAAGGGGGCCUGGAAGUUUGGACUGGGCAGAGCUCAACUCAGCGUGGCAAAGUGGCUGUGGCUAGACUGCCUCUCAGGAUUCCUCGUCACUCAGCAGGGCAUCUCUGAGAGAAAUGCC [A67U U104A] | self-cleavage | 0.03
UACGUAGGUGGGUUUCCCCUGAUAGUGCUAAGGGGGCCUGGAAGUUUGGACUGGGCAGAGCUCAACACAGCGUGGCAAAGUGGCUGUGGCUAAACUGCCUCUCUGGAUUCCUCGUCACUCAGCAGGGCAUCUCUGAGAGAAAUGCC [U12G G93A] | self-cleavage | 0
UACGUAGGUGGUUUUCCCCUGAUAGUGCUAAGGGGGCCUGGAAGUUUGGACUGGGCAGAGCUCAACACAUCGUGGCAAAGUGGCUGUGGCUAGACUGCCUCUCUGGAUUCCUCGUCACUCAGCAGGGCAUCUCUGAGAGGAAUGCC [G70U A140G] | self-cleavage | 0.04
UACGUAGGUGGUUUUCCCCAGAUAGUGCUAAGGGGGCCUGGAAGUUUGGACUGGGCAGAGCUCAACACAGCGUGGCAAAGUGGCUGUGGCUAGACUGCCUCUCUGGAUUCCUCGUCACUUAGCAGGGCAUCUCUGAGAGAAAUGCC [U20A C120U] | self-cleavage | 1.32
UACGUAGGUGGGUUUCCCCUGAUAGUGCUAAGGGGGCCUGGAAGUUUGGACUGGGCAGAGCUCAACACAGCGUGGCAAAGUGGCUGUGGCUAGACUGCCUCUCUGGAUUCCUCGUCACUCAGCAGGGCAUCACUGAGAGAAAUGCC [U12G U132A] | self-cleavage | 0.66
UACGUAGGUGGCUUUCCCCUGAUAGUGCUAAGGGGGCCUGGAAGUUUGGACUGGGCAGAGCUCAACACAGCGUGGCAAAGUGGCUGUGGCUAGACUGCCUCUCUGGAUUCCUCGUCACUCAGCAGGGCAUCUCUGAGAGUAAUGCC [U12C A140U] | self-cleavage | 1.24
UACGUAGGUGGUUUUCCCCUGAUAGUGCUAAGGGGGCCUGGAAGUUUGGACUGGGCAGAGCUCAACACAGCGUGGCAAAGUGGCUGUGGCUAGACUGCCUCCCUGGAUUCCUCGCCACUCAGCAGGGCAUCUCUGAGAGAAAUGCC [U102C U115C] | self-cleavage | 2.02
UACGUAGGUGGUUUUCCCCUGAUAGUGCUAAGGGGGCCUGGAAGGUUGGACUGGGCAGAGCUCAACACAGCGUGGCAAAGUGGCUGAGGCUAGACUGCCUCUCUGGAUUCCUCGUCACUCAGCAGGGCAUCUCUGAGAGAAAUGCC [U45G U87A] | self-cleavage | 0.07
UACGGAGGUGGUUUUCCCCUGAUAGUGCUAAGGGGGCCUGGAAGUUUGGACUGGGCAGGGCUCAACACAGCGUGGCAAAGUGGCUGUGGCUAGACUGCCUCUCUGGAUUCCUCGUCACUCAGCAGGGCAUCUCUGAGAGAAAUGCC [U5G A59G] | self-cleavage | 0.19
UACGUAGGUGGUUUUCCCCUGAUAGUGCUAGGGGGGCCUGGAAGUUUGGACUGGGCAGAGCUCAACACAGCGUGGCAAAGUGGCUGUGGCUAGACUGCCUCUCUGGAUUCCUCGUCACUCAGCAGGGCAUCCCUGAGAGAAAUGCC [A31G U132C] | self-cleavage | 0.85
UACGUAGGUGGUUUUCCCCUGAUAGUGCUAAGGGGGCCUGGAGGUUUGGACUGGGCAGAGCUCAACUCAGCGUGGCAAAGUGGCUGUGGCUAGACUGCCUCUCUGGAUUCCUCGUCACUCAGCAGGGCAUCUCUGAGAGAAAUGCC [A43G A67U] | self-cleavage | 0.06
UACGUAGGUGGUUUUCCCCUGAUAGUGCUAAGGGGGCCUGGAAGUUUGGACUGGGCAGAGCUCAACACAGCGUGGCAAAGUGGCUGUGGCUCGACUGCCUCUCUGGAUUCCUCGUCACUCAGCAGGGCAUCCCUGAGAGAAAUGCC [A92C U132C] | self-cleavage | 0
UACGUAGGAGGUCUUCCCCUGAUAGUGCUAAGGGGGCCUGGAAGUUUGGACUGGGCAGAGCUCAACACAGCGUGGCAAAGUGGCUGUGGCUAGACUGCCUCUCUGGAUUCCUCGUCACUCAGCAGGGCAUCUCUGAGAGAAAUGCC [U9A U13C] | self-cleavage | 0.81
UACGUAGGUGGUUUUCCCCUGAUAGUGCUAAGGGGGCCUGGAAGUUUGGACUGAGCAGAGCUCAACACAGCGUGGCAAAGUGGCUGUGGCUAGACUGCCUCCCUGGAUUCCUCGUCACUCAGCAGGGCAUCUCUGAGAGAAAUGCC [G54A U102C] | self-cleavage | 0.33
UACGUAGGUGGUUUUCCCAUGAUAGUGCUAAGGGGGCCUGGAAGUUUGGACUGGGCGGAGCUCAACACAGCGUGGCAAAGUGGCUGUGGCUAGACUGCCUCUCUGGAUUCCUCGUCACUCAGCAGGGCAUCUCUGAGAGAAAUGCC [C19A A57G] | self-cleavage | 1.11
UACGUAGGUGGUUUUCCCCUGAUAGUGCUAAGGGGGCCUGGAAGUUUGGACUGGGCAGAGCUCAACACUGCGUGGCAAAGUGGCUGUGGCUAGACUGCCUCUCUGGAUUCCUCGUCACUCAGCAGGCCAUCUCUGAGAGAAAUGCC [A69U G127C] | self-cleavage | 0.12
UACGUAGGUGGUUUUCCCCUGAUAGUGCUAAGGGGGCCUGGAAGUUUGGACUGAGCAGAGCUCAACACAGCGUGGCAAAGUGGCUGUGGCUAGACUGCCUCUCUGGAUUCCUCGACACUCAGCAGGGCAUCUCUGAGAGAAAUGCC [G54A U115A] | self-cleavage | 0.64
UACGUAGGUGGUUCUCCCCUGAUAGUGCUAAGGGGGCCUGUAAGUUUGGACUGGGCAGAGCUCAACACAGCGUGGCAAAGUGGCUGUGGCUAGACUGCCUCUCUGGAUUCCUCGUCACUCAGCAGGGCAUCUCUGAGAGAAAUGCC [U14C G41U] | self-cleavage | 0.71
UACGUAGGUGGUUUUCCCCUGAUAGUGCUAAGGGGGCCUGGAAGUUUGGACUGGGCAGAGCUCAACACAGCGUGGCAAAGUGGCUGUGGCUAGACUGCCUCUCUGGAUCCCUCGUUACUCAGCAGGGCAUCUCUGAGAGAAAUGCC [U109C C116U] | self-cleavage | 1.5
UACGUAGGUGGUUUUCCCCUGAUAGUGCUAAGGGGGCCUGGAAGCUUGGACUGGGCAGAGCUCAACACAGCGUGGCAAAGUGGCUGUGGCUAGACUGCCUCUCUGGAUUCCUCGACACUCAGCAGGGCAUCUCUGAGAGAAAUGCC [U45C U115A] | self-cleavage | 1.49
UACGUAGGUGGUUUUCCCCUGAUAGUGCUAAGGGGGCCUGGAAGUUUGGACUGGGCAGAGCUCAACACAGCGUGGCGAAGUGGCUGUGGCUAGACUGCCUCUCUGGAUUCCUCGUCACUCAGCAGGGCUUCUCUGAGAGAAAUGCC [A77G A129U] | self-cleavage | 2
